Measured CC50 by item
Assay: Cytotoxicity against human C8166 cells by MTT assay
Format: cell-based

- Compound: "C/C=C(\\C)C(=O)Oc1c(OC)c(OC)cc2c1-c1c(cc(OC)c(OC)c1OC)[C@H](O)[C@H](C)[C@H](C)C2"
  Unit Of Measure: "µM"
  Censoring Qualifier: ">"
  CC50: 200
- Compound: "COc1cc(C[C@@H](C)[C@@H](C)Cc2ccc(O)c(OC)c2)ccc1O [MESODIHYDROGUAIARETIC ACID]"
  Unit Of Measure: "µM"
  Censoring Qualifier: "="
  CC50: 24.9
- Compound: "COc1ccc([C@H]2O[C@@H](c3ccc(OC)c(OC)c3)[C@H](C)[C@@H]2C)cc1OC"
  Unit Of Measure: "µM"
  Censoring Qualifier: "="
  CC50: 43.4
- Compound: "C/C=C(/C)C(=O)O[C@H]1c2cc(OC)c(OC)c(OC)c2-c2c(cc3c(c2OC)OCO3)[C@H](OC(C)=O)[C@H](C)[C@@H]1C"
  Unit Of Measure: "µM"
  Censoring Qualifier: ">"
  CC50: 200
- Compound: "COc1ccc(C[C@@H](C)[C@@H](C)Cc2ccc(OC)c(OC)c2)cc1OC"
  Unit Of Measure: "µM"
  Censoring Qualifier: "="
  CC50: 28.8
- Compound: "Cc1cn([C@H]2C[C@H](N=[N+]=[N-])[C@@H](CO)O2)c(=O)[nH]c1=O"
  Unit Of Measure: "µM"
  Censoring Qualifier: ">"
  CC50: 1000
- Compound: "COc1c(O)cc2c(c1OC)-c1c(cc3c(c1OC)OCO3)C[C@@H](C)[C@@H](C)[C@H]2OC(=O)/C=C/c1ccccc1"
  Unit Of Measure: "µM"
  Censoring Qualifier: "="
  CC50: 74.1

---

Entries and their CC50 values follow.
Assay: Cytotoxicity against human C8166 cells by MTT assay
Type: cell-based

- Mol: "COc1ccc([C@@H]2O[C@H](c3ccc4c(c3)OCO4)[C@@H](C)[C@@H]2C)cc1O"
  Censoring Qualifier: "="
  CC50 (µM): 19.9
- Mol: "COc1ccc([C@H]2O[C@H](c3ccc4c(c3)OCO4)[C@@H](C)[C@H]2C)cc1OC"
  Censoring Qualifier: "="
  CC50 (µM): 104
- Mol: "COc1cc2c(c(OC)c1OC)-c1c(cc3c(c1OC)OCO3)C(=O)[C@@H](C)[C@@H](C)C2"
  Censoring Qualifier: ">"
  CC50 (µM): 200
- Mol: "COc1cc2c(cc1O)C[C@@H](C)[C@@H](C)[C@@H]2c1ccc(OC)c(OC)c1"
  Censoring Qualifier: "="
  CC50 (µM): 30
- Mol: "COc1cc2c(c(OC)c1OC)-c1c(cc3c(c1OC)OCO3)[C@H](OC(=O)c1ccccc1)[C@H](C)[C@](C)(O)[C@H]2OC(=O)/C=C/c1ccccc1"
  Censoring Qualifier: ">"
  CC50 (µM): 200
- Mol: "CC[C@H](C)C(=O)Oc1c(OC)c(OC)cc2c1-c1c(cc(OC)c(OC)c1OC)[C@H](O)[C@H](C)[C@H](C)C2"
  Censoring Qualifier: ">"
  CC50 (µM): 200
- Mol: "C/C=C(\\C)C(=O)O[C@H]1c2cc(OC)c(OC)c(OC)c2-c2c(cc3c(c2OC)OCO3)[C@H](OC(=O)c2ccccc2)[C@H](C)[C@H]1C"
  Censoring Qualifier: "="
  CC50 (µM): 78.2
